Listing: CL/F of selected compounds
Test: Pharmacokinetic evaluation in C57 mice (i.g./i.v.)
Format: in vivo
Conditions: both sexes, mouse, plasma, po, i.g., 2.0 mg/kg, read-out: Clearance rate CL/F

{"smilesEntry": "CO/N=C(\\N)c1cc(NC(=O)[C@@H]2O[C@@](C)(C(F)(F)F)[C@@H](C)[C@H]2c2ccc(F)c(F)c2OC)ccn1", "CL/F (mL/min/kg)": 24.4}
{"smilesEntry": "COc1c([C@H]2[C@H](C(=O)Nc3ccnc(/C(N)=N/O)c3)O[C@@](C)(C(F)(F)F)[C@H]2C)ccc(F)c1F", "CL/F (mL/min/kg)": 21.2}
